Test system: SNB-19 CNS
Test: NCI-60 one-dose screen, 48 h
Details: 10 µM
About 83,000 compounds went through this panel and 20% of them were active in at least one assay; those are over-represented in the sample as a whole. Activity calls are given as the source filed them. The calls were made as follows: active = growth percent below 10; inactive = the rest.
Classes used: yes (active), no (inactive)

compound | target_entity | category
C/C(=N\N=C\c1ccc(Cl)c([N+](=O)[O-])c1)c1ccc2c(c1)Nc1ccccc1S2 | SNB-19 CNS | no
CCCn1c(=O)c2[nH]c(-c3ccc(OCc4nc5ccc(C#N)cc5[nH]4)cc3)nc2n(CCC)c1=O | SNB-19 CNS | no
CC(=O)OC[C@@]1(C)C2CC[C@]3(C)C(CC=C4C5CC(C)(C)CC[C@]5(C(=O)Nc5ccccc5)CC[C@]43C)[C@@]2(C)C[C@@H](OC(C)=O)[C@@H]1OC(C)=O (stereo not given in full) | SNB-19 CNS | no
CCOP(=O)(OCC)O[C@H]1CC[C@]2(C)[C@H]3CC[C@@H]4[C@@H]([C@](C)(O)CCC=C(C)C)CC[C@@]4(C)[C@]3(C)CC[C@H]2C1(C)C | SNB-19 CNS | no
CN1CCN(Cc2ccc(C(=O)Nc3cccc(Nc4ccc5c(O)cccc5n4)c3)cc2C(F)(F)F)CC1 | SNB-19 CNS | yes
O=S(=O)(Nc1ncccn1)c1ccc(-n2c(-c3ccccc3)nc(-c3ccccc3)c2-c2ccccc2)cc1 | SNB-19 CNS | no
O=C(CSc1nnc(-c2ccc3nc(-c4ccccc4)[nH]c3c2)o1)Nc1ccc(Cl)cc1 | SNB-19 CNS | no
O=C1Nc2ccc(Cl)cc2/C1=C/c1cccc(OCc2ccccc2)c1 | SNB-19 CNS | no
CCNCCCn1c2c(c3cc(OC)c(OC)cc3c1=O)C(=O)c1cc3c(nc1-2)OCO3 | SNB-19 CNS | no
CO[C@H]1CSS[C@@H]1Cn1nc(-c2ccc(Oc3ccccc3)cc2)c2c(N)ncnc21 | SNB-19 CNS | no
O=C(Nc1nc2ccc([N+](=O)[O-])cc2s1)Nc1ccccc1I | SNB-19 CNS | no
COc1nccnc1NS(=O)(=O)c1ccc(NC2=C(Cl)C(=O)c3nc(C)ccc3C2=O)cc1 | SNB-19 CNS | no
O=C(Nc1nc2ccc([N+](=O)[O-])cc2s1)Nc1cc(Cl)ccc1I | SNB-19 CNS | yes
COc1cc(/C=C/C(=O)c2ccc(S(=O)(=O)NCCNc3nc(Nc4ccc(F)cc4)nc(N(C)C)n3)cc2)cc(OC)c1OC | SNB-19 CNS | no
COc1ccc(-c2cc(C(=O)N=Nc3c(O)[nH]c4ccc(Br)cc34)c3ccccc3n2)cc1 | SNB-19 CNS | yes
O=C(Nc1cccc(-c2cn(-c3ccc4oc(=O)ccc4c3)nn2)c1)Nc1cc(C(F)(F)F)cc(C(F)(F)F)c1 | SNB-19 CNS | no
O=C(Nc1cccc([N+](=O)[O-])c1)Nc1cccc([N+](=O)[O-])c1 | SNB-19 CNS | no
COc1ccc(NC(=O)Cn2c(/C=C/c3ccc(N(C)C)cc3)nc3ccccc3c2=O)cc1 | SNB-19 CNS | no
CC1(C)CC[C@]2(C(=O)O)CC[C@]3(C)C(=CC[C@@H]4[C@@]5(C)C/C(=C/c6ccncc6)[C@H](O)C(C)(C)[C@@H]5CC[C@]43C)[C@@H]2C1 | SNB-19 CNS | no
CC1(c2ccccc2)NC(=O)N(CC(=O)Nc2ccc(C(=O)/C=C/c3ccc(Cl)cc3)cc2)C1=O (stereo not given) | SNB-19 CNS | no
COc1ccc(-c2cc(C(=O)N=Nc3c(O)[nH]c4ccccc34)c3ccccc3n2)cc1 | SNB-19 CNS | yes
N#C/C(=C\c1ccc(N(c2ccccc2)c2ccccc2)cc1)C(N)=O | SNB-19 CNS | no
CN1CCN(c2ccc(Nc3nc(N4CCN(S(=O)(=O)c5ccc(Cl)cc5)CC4)c4sccc4n3)cc2)CC1 | SNB-19 CNS | no
O=c1[nH]c2ccc(Cl)cc2cc1CSc1ccc(Nc2nccc(-c3ccc(Cl)cc3)n2)cc1 | SNB-19 CNS | no
CCOc1ccc2ncc(C#Cc3cncc(C(=O)Nc4ccc(CN5CCN(C)CC5)c(C(F)(F)F)c4)c3)n2n1 | SNB-19 CNS | yes
O=C(NC(=S)N1CCN(c2ncnc3c2cnn3-c2ccccc2)CC1)c1ccc(Cl)cc1 | SNB-19 CNS | no
Brc1ccc(/C=N/Nc2ncnc3sc4c(c23)CCN(Cc2ccccc2)C4)cc1 | SNB-19 CNS | no
CCN1CCN(c2ccc(NC(=O)Nc3ccc(-c4cc(C(=O)NC(C)C)c5ncccc5n4)cc3)cc2C(F)(F)F)CC1 | SNB-19 CNS | yes
COc1ccc(OC)c(/C=N/NC(=O)c2ccc3nc(-c4ccc(Cl)cc4)[nH]c3c2)c1 | SNB-19 CNS | no
CCCn1c(=O)c2[nH]c(-c3ccc(OCc4nc5ccc(C(F)(F)F)cc5[nH]4)cc3)nc2n(CCC)c1=O | SNB-19 CNS | no
CN1CCN(c2ccc(C(=O)/C=C/c3ccc(C#N)cc3)cc2)CC1 | SNB-19 CNS | no
COc1cccc2nc(Nc3cccc(NC(=O)c4ccc(CN5CCCN(C)CC5)c(C(F)(F)F)c4)c3)ccc12 | SNB-19 CNS | yes
O=C(NO)c1ccc(CN2CCN(c3nc(-c4ccccc4)c4ccccc4n3)CC2)cc1 | SNB-19 CNS | no
COc1ccc(-c2c(N)c(=O)n(C)c3ccccc23)cc1 | SNB-19 CNS | no
O=C1CCC(N2Cc3c(NCc4ccc(-c5ccccc5)cc4)cccc3C2=O)C(=O)N1 (stereo not given) | SNB-19 CNS | no
